Target: HIV-1 Env of isolate MGRM-A-014 (pseudovirus) (HIV-1)
Experiment: cell-based or functional assay
Listed binders paired with reported IC50 (µg/mL), pseudovirus neutralization

binder	readout units	IC50 (µg/mL), pseudovirus neutralization
PGT-125 (5123_A06) (antibody, V domains shown) VH: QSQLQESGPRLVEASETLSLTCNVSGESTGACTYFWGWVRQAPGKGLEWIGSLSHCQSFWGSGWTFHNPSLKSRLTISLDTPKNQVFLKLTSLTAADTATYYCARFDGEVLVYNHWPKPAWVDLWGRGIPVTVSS VL: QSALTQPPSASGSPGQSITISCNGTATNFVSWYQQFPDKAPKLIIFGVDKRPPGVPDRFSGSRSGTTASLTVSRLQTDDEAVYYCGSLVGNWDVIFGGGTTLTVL	µg/mL	13.9
PGT-123 (4858_P08) (antibody, V domains shown) VH: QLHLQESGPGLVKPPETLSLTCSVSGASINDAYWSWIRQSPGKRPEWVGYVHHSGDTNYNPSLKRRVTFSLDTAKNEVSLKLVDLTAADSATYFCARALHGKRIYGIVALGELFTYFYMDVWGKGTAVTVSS VL: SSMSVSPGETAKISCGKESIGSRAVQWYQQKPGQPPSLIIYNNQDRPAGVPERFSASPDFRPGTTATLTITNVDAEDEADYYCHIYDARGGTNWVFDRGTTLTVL	µg/mL	0.003
PGT-126 (5141_B17) (antibody, V domains shown) VH: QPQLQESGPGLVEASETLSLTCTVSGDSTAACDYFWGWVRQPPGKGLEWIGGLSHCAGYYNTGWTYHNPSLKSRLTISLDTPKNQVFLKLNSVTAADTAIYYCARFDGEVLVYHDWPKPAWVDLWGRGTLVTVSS VL: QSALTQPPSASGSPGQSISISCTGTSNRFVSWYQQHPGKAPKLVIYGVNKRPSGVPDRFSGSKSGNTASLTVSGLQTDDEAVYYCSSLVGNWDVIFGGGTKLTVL	µg/mL	0.01

Data origin: patent US20250320281A1
